Values were extracted from ChEMBL document CHEMBL4513146.

system: Klebsiella pneumoniae; settings: Concentration 32 ug.mL-1;; ASSAY_TEST Inhibition of Bacterial Growth; detection method Absorption (OD600); MEDIA CAMHB; plate type 384well; NBS; CORNING #3640; time 18 hr
Description: Antibacterial activity against Klebsiella pneumoniae MDR ATCC 70063 (CO-ADD:GN_003); MIC in CAMBH media using NBS plates, by OD(600)
Measured potencies and affinities stand elsewhere.
Reported values of Inhibition for individual entries
Express the result in % but write the number alone.

Take a look at these entries with their results.
{"columns": ["molecule", "Inhibition, %"],
 "data": [
  ["O=C(Cn1nc2c(N3CCSCC3)nc3ccccc3n2c1=O)NCc1ccccc1", 13.9],
  ["CC1CC(C)CN(c2nccn3c(=O)n(CC(=O)NCc4ccccc4Cl)nc23)C1 (configuration not stated)", 9.46],
  ["O=C(Cn1nc2c(SCc3ccccc3)nccn2c1=O)NCc1ccccc1", -8.41]
]}

Task: Returns the measured Inhibition for the input molecule. Input: COC(=O)c1ccccc1NC(=O)Cn1nc2c3sc(N4CCCC4)nc3ncn2c1=O
Output: 7.53
